- Target: hEP4/Gqs5 (Homo sapiens, UniProt P35408)
- Sequence (P35408 whole entry): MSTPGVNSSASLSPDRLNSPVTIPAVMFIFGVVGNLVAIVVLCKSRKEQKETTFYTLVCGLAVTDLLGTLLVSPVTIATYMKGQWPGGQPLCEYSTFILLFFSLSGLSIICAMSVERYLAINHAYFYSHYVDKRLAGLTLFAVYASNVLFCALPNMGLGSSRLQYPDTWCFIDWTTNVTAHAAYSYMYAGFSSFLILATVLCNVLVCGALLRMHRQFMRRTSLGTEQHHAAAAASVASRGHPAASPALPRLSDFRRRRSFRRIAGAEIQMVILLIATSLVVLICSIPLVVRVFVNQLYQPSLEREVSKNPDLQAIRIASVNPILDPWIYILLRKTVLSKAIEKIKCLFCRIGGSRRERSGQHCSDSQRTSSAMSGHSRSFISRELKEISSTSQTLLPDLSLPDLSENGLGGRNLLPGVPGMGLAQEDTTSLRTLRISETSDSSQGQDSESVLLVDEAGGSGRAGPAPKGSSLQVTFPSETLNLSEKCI
- Assay procedure: FLIPR calcium signal, EP4
- Particulars: HEK-293(EBNA) hEP4/Gqs5, read-out: EP4 Ca2+ EC50
Parameter EC50: see the listing below.

Completed entries (count: 2):
Compound	Target	EC50
CCCCCC(O)c1ccc(C2=C(C#CCO)CC[C@@H]2CCCc2ccc(C(=O)O)s2)cc1 (stereo partly drawn)	hEP4/Gqs5 (Homo sapiens, UniProt P35408)	> 10 µM
CCCCCC(O)c1ccc(C2=C(C#Cc3ccccc3)CC[C@@H]2CCCc2ccc(C(=O)O)s2)cc1 (stereo partly drawn)	hEP4/Gqs5 (Homo sapiens, UniProt P35408)	> 10 µM

Could you now consider this next compound?
What does the data say about its EC50? Entry: C#CC1=C(c2ccc(C(O)CCCCC)cc2)[C@@H](CCCc2ccc(C(=O)O)s2)CC1 (single isomer, unassigned)
> 10 µM
